Target chain: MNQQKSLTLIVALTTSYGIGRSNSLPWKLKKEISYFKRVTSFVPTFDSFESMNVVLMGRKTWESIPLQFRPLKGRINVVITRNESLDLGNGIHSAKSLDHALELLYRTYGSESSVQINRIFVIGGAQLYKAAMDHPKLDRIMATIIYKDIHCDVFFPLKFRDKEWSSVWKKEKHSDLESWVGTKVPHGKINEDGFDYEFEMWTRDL
Would you kindly list pIC50 for each of these molecules?
One number for each entry, as −log10 of the molar value.

For orientation, consider the following solved cases.
>>> print(df.to_string())
                                        smi  obs_value
0  CC1(C)N=C(N)N=C(N)N1c1ccc(OCc2cccc(Cl)c2)cc1       5.96
1  NC(N)=N/C(N)=N/c1ccc(OCc2ccc(Cl)cc2Cl)cc1       3.91

For each of the items listed, what is its pIC50?
1. CC1(C)N=C(N)N=C(N)N1c1ccc(OCc2ccccc2)cc1
2. CC1(C)N=C(N)N=C(N)N1c1ccc(OCc2ccc(Br)cc2)cc1
3. CC1(C)N=C(N)N=C(N)N1c1ccc(OCc2ccc(-c3ccccc3)cc2)cc1
4. N=C(N)NC(=N)Nc1ccc(OCc2ccc(Br)cc2)cc1
5. CC1(C)N=C(N)N=C(N)N1c1ccc(OCCN2C(=O)c3ccccc3C2=O)cc1

1: 5.27; 2: 6.08; 3: 6.39; 4: 3.79; 5: 4.81

For each of the items listed, what is its pIC50?
1. N=C(N)NC(=N)Nc1ccc(OCc2ccccc2)cc1
2. CC1(C)N=C(N)N=C(N)N1c1ccc(OCc2ccccc2Cl)cc1

3.88
5.60

----------
As an illustration, consider measured IC50 for compounds on Dihydrofolate reductase (Rattus norvegicus, UniProt Q920D2).
Sequence (Q920D2 whole entry): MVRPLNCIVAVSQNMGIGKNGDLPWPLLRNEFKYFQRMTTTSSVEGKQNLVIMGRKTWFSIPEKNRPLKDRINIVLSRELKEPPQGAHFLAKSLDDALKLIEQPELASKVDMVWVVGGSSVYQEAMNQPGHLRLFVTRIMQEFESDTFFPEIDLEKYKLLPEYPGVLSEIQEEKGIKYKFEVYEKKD
One number for each entry, in µM.

For orientation, consider the following solved cases.
>>> df
                                        smi                              assay_system  obs_value
0   NC(N)=N/C(N)=N/c1ccc(OCc2cccc(Cl)c2)cc1  Dihydrofolate reductase (Rattus norvegicus, UniProt Q920D2)       68.7
1  CC1(C)N=C(N)N=C(N)N1c1ccc(OCc2ccccc2Cl)cc1  Dihydrofolate reductase (Rattus norvegicus, UniProt Q920D2)      0.073
2  CC1(C)N=C(N)N=C(N)N1c1ccc(OCc2ccc(-c3ccccc3)cc2)cc1  Dihydrofolate reductase (Rattus norvegicus, UniProt Q920D2)      0.026
3  CC1(C)N=C(N)N=C(N)N1c1ccc(OCc2cccc(Cl)c2)cc1  Dihydrofolate reductase (Rattus norvegicus, UniProt Q920D2)      0.034
4  CC1(C)N=C(N)N=C(N)N1c1ccc(OCCCN2C(=O)c3ccccc3C2=O)cc1  Dihydrofolate reductase (Rattus norvegicus, UniProt Q920D2)      0.556
5  N=C(N)NC(=N)Nc1ccc(OCCCN2C(=O)c3ccccc3C2=O)cc1  Dihydrofolate reductase (Rattus norvegicus, UniProt Q920D2)        106
6  CC1(C)N=C(N)N=C(N)N1c1ccc(OCc2ccc(Br)cc2)cc1  Dihydrofolate reductase (Rattus norvegicus, UniProt Q920D2)      0.033
7         N=C(N)NC(=N)Nc1ccc(OCc2ccccc2)cc1  Dihydrofolate reductase (Rattus norvegicus, UniProt Q920D2)        132
8  CC1(C)N=C(N)N=C(N)N1c1ccc(OCCN2C(=O)c3ccccc3C2=O)cc1  Dihydrofolate reductase (Rattus norvegicus, UniProt Q920D2)       1.16
9  COc1ccc(COc2ccc(N3C(N)=NC(N)=NC3(C)C)cc2)cc1  Dihydrofolate reductase (Rattus norvegicus, UniProt Q920D2)      0.048

Quick one: IC50 for `N=C(N)NC(=N)Nc1ccc(OCc2ccc(Br)cc2)cc1` ?
74.9
